system: CCRIS mutagenicity, Ames/micronucleus/aberration tests; test: CCRIS mutagenicity studies; conditions: Test System: E. COLI; Strain/Indicator: WP2 UVRA; Metabolic Activation: NONE; Method: STANDARD PLATE
The source made the active and inactive calls. How the calls were made is not given here.
Pick one and only one: active, inactive

# count of solved cases: 10
- MOLECULE: "O=C(O)CN(CCN(CC(=O)O)CC(=O)O)CC(=O)O"
  CLASS_LABEL: "inactive"
- MOLECULE: "CC(C)OC(=O)C(C)(C)Oc1ccc(C(=O)c2ccc(Cl)cc2)cc1"
  CLASS_LABEL: "inactive"
- MOLECULE: "S=C(NC1CCCCC1)NC1CCCCC1"
  CLASS_LABEL: "inactive"
- MOLECULE: "O=[N+]([O-])c1ccc(NO)cc1"
  CLASS_LABEL: "inactive"
- MOLECULE: "CCCCC[C@@](C)(O)/C=C/[C@H]1[C@H](O)CC(=O)[C@@H]1C/C=C\\CCCC(=O)O"
  CLASS_LABEL: "inactive"
- MOLECULE: "O=CNc1nc(-c2ccc([N+](=O)[O-])o2)cs1"
  CLASS_LABEL: "active"
- MOLECULE: "COCC(O)Cn1ccnc1[N+](=O)[O-] (stereo unspecified)"
  CLASS_LABEL: "active"
- MOLECULE: "Nc1ccc(S(=O)(=O)c2ccc(N)cc2)cc1"
  CLASS_LABEL: "inactive"
- MOLECULE: "CC(=O)C1c2cccc(O)c2C(=O)c2c(O)cccc21"
  CLASS_LABEL: "inactive"
- MOLECULE: "CCOP(=O)(OCC)SCCSCC (tested in a mixture with another compound)"
  CLASS_LABEL: "active"

Turning to the following molecule.
Per the assay record, what outcome was assigned to C=C1/C(=C\C=C2/CCC[C@]3(C)[C@@H]([C@H](C)CC[C@@H](O)C(C)C)CC[C@@H]23)C[C@@H](O)C[C@@H]1O ? inactive
